Assay: Phase I study, pharmacokinetic parameters after oral single dose and daily dose for 7 days
Format: in vivo, human
Settings: human, in vivo; single dose 80 mg, oral; read-out: Tmax time required to attain maximum concentration
Protocol: The doses tested were 10, 20, 40 and 80 mg of tenatoprazole. In this table, the abbreviations employed have the following meaning: Cmax maximum concentration Tmax time required to attain maximum concentration T1/2 elimination half-life AUC0-t area under the curve, between time 0 and the last measurable concentration. The AUC0-inf value was calculated by extrapolation.
QUANTITY_MEASURED: Tmax (h)
I only need the number, in h, no unit after it.

COc1ccc2[nH]c([S+]([O-])Cc3ncc(C)c(OC)c3C)nc2n1 (stereo not shown) has a reported Tmax of 3
